Test system: Fibroblast
Assay: Incucyte cell viability with human fibroblast; also: unitless GR value; below 1 slowed growth and below 0 cell loss
Type: toxicity, cell-based
Settings: 12 h, 10 µM, compound concentration 10 uM, replicate number 2
Threshold check on Growth Rate: at or above 0.7 gives Y, strictly below gives N.

CCCCCCCN(CCc1ccc(SC(C)(C)C(=O)O)cc1)C(=O)Nc1ccc(F)cc1F	Y
CN1C(=O)c2c(nn(Cc3ccc(-c4cccc(F)n4)cc3)c2Nc2ccccc2)N2C1=N[C@@H]1CCC[C@@H]12.O=P(O)(O)O [LENRISPODUN PHOSPHATE]	N
Cl.O=C(NCCN1CCC2(CC1)C(=O)NCN2c1cccc(F)c1)c1ccc2ccccc2c1	N
O=C1COc2cc(C(=O)N(Cc3ccc(C(=O)Nc4ccncn4)cc3)C3CC3)ccc2N1	Y

Turning now to a further record.
Prompt: Textbook exercise: given the entry O=C(O)C[C@H]1CCn2c1c(Sc1ccc(Cl)cc1)c1ccc(F)cc12 , state whether its Growth Rate is greater than or equal to 0.7.
Response: N

----------
System: HEK-293T
Experiment: Incucyte cell viability with HEK293T; also: unitless GR value; below 1 slowed growth and below 0 cell loss
Assay type: toxicity, cell-based
Details: human, 24 h, 10 µM, compound concentration 10 uM, replicate number 2
readout label: Growth Rate
Keep it simple and answer with nothing but the number.

Cc1c(C(=O)NCCCN(C)C)sc2ncnc(Nc3ccc(F)cc3OC(C)CF)c12 (stereo not given)	0.16

The record that follows has no Growth Rate shown yet.
Prompt: What Growth Rate value was documented for this compound, O=C1Nc2ccc(C(=O)c3ccco3)cc2C1=Cc1cc(Cl)c(O)c(Cl)c1 [GW406108X] ?
Response: 0.11

----------
Test system: U2OS
Assay: Incucyte cell viability with U2OS; also: unitless GR value; below 1 slowed growth and below 0 cell loss
Format: toxicity, cell-based
Settings: human, 18 h, 10 µM, compound concentration 10 uM, replicate number 2
Reported Growth Rate values follow for various molecules
Keep it simple and answer with nothing but the number.

CCc1nc(-c2cccc(C)c2)c(-c2ccnc(NC(=O)c3ccccc3)c2)s1	0.87

The record that follows has no Growth Rate shown yet.
Prompt: Record lookup: for U2OS, what Growth Rate belongs to COc1cc(N2CCC(N3CCN(C)CC3)CC2)ccc1Nc1ncc(Cl)c(Nc2ccccc2S(=O)(=O)C(C)C)n1 ?
Response: 0.27

----------
Test system: U2OS
Experiment: Incucyte cell viability with U2OS; also: unitless GR value; below 1 slowed growth and below 0 cell loss
Format: toxicity, cell-based
Settings: human, 0 h, 10 µM, compound concentration 10 uM, replicate number 1
Reported Growth Rate values follow for various compounds
Keep it simple and answer with nothing but the number.

# example entries with known answers
CN(CCCCCCC1=C(c2cc(F)cc(F)c2)CCCc2cc(O)ccc21)CCCCS(=O)(=O)CCCC(F)(F)F	-1
CC(C)(O)c1coc(S(=O)(=O)NC(=O)Nc2c3c(cc4c2CCC4)CCC3)c1	0.85
[2H]C([2H])([2H])NC(=O)c1nnc(NC(=O)C2CC2)cc1Nc1cccc(-c2ncn(C)n2)c1OC	0.39

Prompt: What Growth Rate value was documented for this compound, CCOC(=O)c1cc2cc(-c3cc(C(=O)NCc4ccc(C(=O)O)cc4)nn3C)ccc2[nH]1 ?
Response: 0.89

Prompt: What Growth Rate value was documented for this compound, CO[C@@H](C)CN1CC[C@]2(C)c3cc(O)ccc3C[C@H]1C2(C)C.Cl ?
Response: 0.91

Prompt: What Growth Rate value was documented for this compound, O=C(Nc1ccc(Oc2ccc(Cl)cc2)c(Cl)c1)c1cc(I)cc(I)c1O [RAFOXANIDE] ?
Response: 0.6

Prompt: What Growth Rate value was documented for this compound, CC1(C)CCC(CN2CCN(c3ccc(C(=O)NS(=O)(=O)c4ccc(NCC5CCOCC5)c([N+](=O)[O-])c4)c(Oc4cnc5[nH]ccc5c4)c3)CC2)=C(c2ccc(Cl)cc2)C1 ?
Response: 0.58

Prompt: What Growth Rate value was documented for this compound, Cc1cc(=O)oc2cc(NC(=O)[C@H](Cc3ccc(I)cc3)NC(=O)[C@H]3N[C@@H]4CC[C@H]3C4)ccc12.O=C(O)C(F)(F)F ?
Response: -0.48

Prompt: What Growth Rate value was documented for this compound, O=S(=O)(Nc1nncs1)c1cc(Cl)c(Oc2ccc(C(F)(F)F)cc2-c2ccnn2C2CNC2)cc1F ?
Response: 0.61

----------
Tested on: HEK-293T
Test: Incucyte cell viability with HEK293T; also: unitless GR value; below 1 slowed growth and below 0 cell loss
Format: toxicity, cell-based
Conditions: human, 18 h, 10 µM, compound concentration 10 uM, replicate number 1
Rule: Growth Rate below -0.2 gives condition met, anything at or above gives condition not met.

Cc1c(NC(=O)c2ccc(C(C)(C)C)cc2)cccc1-c1cn(C)c(=O)c(Nc2ccc(C(=O)N3CCOCC3)cc2)n1	condition not met
CN[C@@H](C)C(=O)N[C@H]1CN(C(=O)CC(C)C)CC[C@H]2CC[C@@H](C(=O)NC(c3ccccc3)c3ccccc3)N2C1=O	condition not met
CC(C)n1cnc2c(Nc3cccc(Cl)c3)nc(N[C@H]3CCCC[C@@H]3N)nc21	condition met
CCCCc1oc2ccccc2c1C(=O)c1cc(I)c(OCCN(CC)CC)c(I)c1.Cl [AMIODARONE HYDROCHLORIDE]	condition not met
O=C1NCc2ccc3c(-c4cccc(Cl)c4)c[nH]c3c21	condition met

Prompt: Input CN1CC(=O)N(C)c2cnc(Nc3ccc(NC(=O)Nc4cccc(C(=O)O)c4)cc3)nc21 ; condition: Growth Rate strictly below -0.2. Does it hold?
Response: condition not met

Prompt: Input CCC(=O)Nc1cc(Nc2cc(NC3CC3)n3ncc(C#N)c3n2)ccc1C ; condition: Growth Rate strictly below -0.2. Does it hold?
Response: condition not met

----------
Tested on: HEK-293T
Assay: Incucyte cell viability with HEK293T; also: unitless GR value; below 1 slowed growth and below 0 cell loss
Format: toxicity, cell-based
Conditions: human, 18 h, 10 µM, compound concentration 10 uM, replicate number 2
Reported Growth Rate values follow for various molecules
Keep it simple and answer with nothing but the number.

# example entries with known answers
COc1cc(C(=O)NCCOCCOCCOCC(=O)N[C@H](C(=O)N2C[C@H](O)C[C@H]2C(=O)NCc2ccc(-c3scnc3C)cc2)C(C)(C)C)ccc1Nc1ncc(C(F)(F)F)c(Oc2cccc3c2C(=O)CC3)n1	-0.01
CCC(=O)O[C@@H](OP(=O)(CCCCc1ccccc1)CC(=O)N1C[C@H](C2CCCCC2)C[C@H]1C(=O)[O-])C(C)C.[Na+] (some centres undefined)	0.29
CCNCCNC(=O)c1c(C)[nH]c(/C=C2\C(=O)Nc3ccc(F)cc32)c1C	0.09

Prompt: What Growth Rate value was documented for this molecule, O=C(O)C(F)(F)F.O=C1NC(=O)/C(=C/c2c[nH]c(=O)c(-c3ccc(N4CCNCC4)nc3)c2)S1 ?
Response: 0.96

Prompt: What Growth Rate value was documented for this molecule, Cc1[nH]nc(C(F)(F)F)c1Cc1sc2c(c1C(=O)N1C[C@](C)(O)CO1)c(=O)n(C)c(=O)n2C(C)C ?
Response: 0.22

Prompt: What Growth Rate value was documented for this molecule, CNC(=O)COc1cc2cc(Nc3nc(N4CCC(C(=O)N(C)C)CC4)ncc3Cl)cc(OC)c2n(C)c1=O ?
Response: 0.58

Prompt: What Growth Rate value was documented for this molecule, CC(C)(C)S(=O)(=O)c1ccc2nccc(Nc3n[nH]c4ccc(F)cc34)c2c1 ?
Response: -0.14

----------
Test system: U2OS
Test: Incucyte cell viability with U2OS; also: unitless GR value; below 1 slowed growth and below 0 cell loss
Type: toxicity, cell-based
Details: human, 18 h, 10 µM, compound concentration 10 uM, replicate number 2
readout label: Growth Rate

CC(C)c1ccc(CC(=O)N[C@H](C)c2ccc(OCC(F)(F)F)cn2)cc1 [SUVECALTAMIDE]	0.86
CCn1c(-c2ccncc2)cc2c1CCNC2=O	0.12
CC(C)(C)c1ccc2c(c1)CC[C@H]2NC(=O)Nc1cccc2[nH]ncc12	0.91
Cc1nnsc1C(=O)Nc1ccc(-n2nc(C(F)(F)F)cc2C(F)(F)F)cc1	0.63
Cc1nc2ccccc2c(-c2ccc3c4c(ccnc24)CCO3)c1[C@H](OC(C)(C)C)C(=O)O	0.85

Prompt: What Growth Rate value was documented for this compound, N#Cc1cccc(-c2nc(-c3cccnc3)no2)c1 ?
Response: 1

Prompt: What Growth Rate value was documented for this compound, CC(=O)N1CCN(c2ccc(OCC3COC(Cn4ccnc4)(c4ccc(Cl)cc4Cl)O3)cc2)CC1 (stereo not given) ?
Response: 0.99

----------
Test system: HEK-293T
Assay: Incucyte cell viability with HEK293T; also: unitless GR value; below 1 slowed growth and below 0 cell loss
Assay type: toxicity, cell-based
Conditions: human, 18 h, 10 µM, compound concentration 10 uM, replicate number 1
readout label: Growth Rate

# example entries with known answers
CC[C@H](NC(=O)[C@H](C)NC)C(=O)N1C[C@@H](O)C[C@H]1Cc1c(-c2[nH]c3cc(F)ccc3c2C[C@@H]2C[C@H](O)CN2C(=O)[C@H](CC)NC(=O)[C@H](C)NC)[nH]c2cc(F)ccc12	0.9
COc1cc(OC)cc(-c2cc3cnc(N)nc3nc2NC(=O)NC(C)(C)C)c1	0.71

Prompt: Record lookup: for HEK-293T, what Growth Rate belongs to CN(C)CC#Cc1ccc2[nH]c3c(c2c1)-c1nc(N)ncc1CCC3 ?
Response: 0.11
